Item-by-item account of % inh
molecular target: T1, recombinant human DLL4 (human, UniProt Q9NR61 25-522); assay: AlphaScreen biot-hDLL4/hNotch1-Fc, periplasmic extract
T1 construct: also called rhDLL4; hDLL4
T1 sequence (Q9NR61 25-522): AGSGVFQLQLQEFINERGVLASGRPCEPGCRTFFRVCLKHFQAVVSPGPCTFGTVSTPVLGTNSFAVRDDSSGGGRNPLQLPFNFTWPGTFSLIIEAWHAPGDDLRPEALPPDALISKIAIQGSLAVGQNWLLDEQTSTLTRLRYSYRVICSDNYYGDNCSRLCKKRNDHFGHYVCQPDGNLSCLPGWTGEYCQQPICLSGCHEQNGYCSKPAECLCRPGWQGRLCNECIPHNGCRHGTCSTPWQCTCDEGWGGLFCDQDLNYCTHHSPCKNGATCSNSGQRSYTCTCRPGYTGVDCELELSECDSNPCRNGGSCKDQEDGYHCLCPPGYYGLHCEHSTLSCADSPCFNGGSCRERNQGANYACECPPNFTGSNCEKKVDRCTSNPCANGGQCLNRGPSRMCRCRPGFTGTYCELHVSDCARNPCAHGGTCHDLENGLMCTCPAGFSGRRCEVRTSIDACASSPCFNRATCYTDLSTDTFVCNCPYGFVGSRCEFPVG

{"Binder": "DLLBII33C05 (VHH) VHH: EVQLVESGGGLVQAGGSLRLSCAASGFTLDNYVIGWFRQAPGKEREEVSCISSSGGSTDYLDSVKGRFTISRDNAKNTVYLQMNSLKPEDTAVYYCAADSLPCYYDKMVYDYWGQGTQVTVSS", "% inh": "75%"}
{"Binder": "DLLBII17F10 (VHH) VHH: EVQLVESGGGLVQAGGSLRLSCASSGRTLLNYAMGWFRQAPGKEREFVSGINWSGGSTYYADSVKGRFTISRDNAENTVYLHMNSLKPEDTAVYYCAAAHDNYWFTDDSLGRGLKYWGQGTQVTVSS", "% inh": "88%"}
{"Binder": "DLLBII28B06 (VHH) VHH: EVQLVESGGGLVQAGGSLRLSCAASGSTFSTYAMGWYRQDPGNQRELVAAISSDGSTHYADSVKGRFTISRDNAKNTVYLQMNSLKPEDTAVYYCYAPVKVAGLEYDYWGQGTQVTVSS", "% inh": "54%"}
{"Binder": "DLLBII19F12 (VHH) VHH: EVQLVESGGGLVQAGGSLRLSCTASGSTFTSYAMGWYRQAPGKQRELVAAISSDDSTYYADCVKGRFTISRDNAKNTVYLQMNSLKPEDTAVYYCNAPHSDYDEEAPSDFGSWGQGTQVTVSS", "% inh": "98%"}

Recorded % inh of DLLBII17B03 (VHH) VHH: EVQLVESGGGLVQPGGSLRLSCAASGFTFENYALGWFRQAPGKEREWVSCISSSDGTTYYADSVKGRFTISRDNVKNTVYLQMNRLKPEDTAIYYCALSLGSSWCAYDYWGQGTQVTVSS , please.
77%
